# assay.details: NCI Yeast Anticancer Drug Screen. Data for the CLN2oe strain (AID 163);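 also: 0% = growth of vehicle-only control cultures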
# study.conditions: S. cerevisiae CLN2oe strain, at 3.7 µM, active compounds read high
# Experimental: Growth inhibition of yeast strains with defined genetic alterations is measured as a screen for potential anti-cancer activity. Selected strains with alterations in DNA damage repair or cell cycle control were exposed to compounds and growth inhibition was measured relative to vehicle treated controls. The strain used in this assay is CLN2oe
This is part of a sample that, as a whole, favours compounds with a hit. Of some 79,000 tested, about 15% had one in any assay.

compound	growth inhibition [%]
O=C1c2ccccc2-c2n[nH]c3cccc1c23	-21
O=C(O)CNc1ccc(Cl)c(Cl)c1	-1
C#CCCCc1ccccc1	-5
CC1(C)C(=O)OC(n2cc(F)c(=O)[nH]c2=O)C1=O (configuration not stated)	13
C[C@@H]1C[C@H]2[C@@H]3CCC4=CC(=O)C=C[C@]4(C)[C@@]3(Cl)[C@@H](Cl)C[C@]2(C)[C@@]1(O)C(=O)COP(=O)(O)O	-3
CC/C(=C(\c1ccccc1)c1ccc(OCCN(C)C)cc1)c1ccccc1	14
CC1(Cl)CC(O)C2(CC1Br)C1(C)OC1C1OC1(Br)C2(C)C (configuration not stated)	3
CCOC(=O)[C@H]1Nc2ccccc2C2c3ccccc3CC21 (some centres not stated)	-1
N#CN=Nc1cc(Cl)c(N=NC#N)cc1Cl	-6
O=[N+]([O-])C(=C(Sc1ccccc1)Sc1ccccc1)C(Cl)=C(Cl)Cl	16
O=C(NC(Nc1ccc(F)c(Cl)c1)(C(F)(F)F)C(F)(F)F)C(C(F)(F)F)C(F)(F)F	32
Cc1nn(-c2cc(Cl)ccc2[N+](=O)[O-])c(C)c1Cl	2

###

# assay.details: NCI Yeast Anticancer Drug Screen. Data for the bub3 strain (AID 167)
# study.conditions: S. cerevisiae bub3 mutant strain, at 50.0 µM (retest, dose inferred, filed as 5.0)
# Description: Growth inhibition of yeast strains with defined genetic alterations is measured as a screen for potential anti-cancer activity. Selected strains with alterations in DNA damage repair or cell cycle control were exposed to compounds and growth inhibition was measured relative to vehicle treated controls. The strain used in this assay is bub3
About 79,000 compounds went through this panel and 15% of them were active in at least one assay; those are over-represented in the sample as a whole. Calls of active or inactive are those of the source. Rule as the data show it: active = growth inhibition above about 70%; inactive = the rest.
Outcomes: active, inactive

compound	cat
O=C(OCCN1CCCCCC1)C(c1ccsc1)C1CCCCC1 (stereo not drawn)	active
O=C(O)CNc1ccc(Cl)c(Cl)c1	inactive
O=C([O][Sn]([O]C(=O)c1ccccc1)([c]1ccccc1)[c]1ccccc1)c1ccccc1	active
COC(=O)CSSCc1ccc([N+](=O)[O-])cc1	active
[O-][n+]1c2ccc(O)cc2nc2ccc(Cl)cc21	inactive
COc1cc(CC2CC(c3ccc4c(c3)OCO4)OC2=O)cc(OC)c1OC (stereo not drawn)	inactive
O=C1C(=O)c2ccccc2C=C1[N+](=O)[O-]	inactive
O=C1C2CC[C@@H]3C(=O)C(Cl)(Cl)[C@@H]3CCC2C1(Cl)Cl (stereo partly drawn)	inactive
O=[N+]([O-])c1cc2no[n+]([O-])c2cc1N1CCCCC1	inactive
OC1CSCCCSCCSCCCSC1	active
O=C(OCC=C1CCCC1)c1cc([N+](=O)[O-])cc([N+](=O)[O-])c1	active
COc1ccc(NC(=S)N/N=C(\c2ccccc2)c2ccccn2)cc1	active
N#CN1C2CCC1CC(=O)C2	inactive
COC(=O)c1ccc(NCC2=CC(=O)C=CC2=O)cc1O	active
N#CSc1ccc(S(N)(=O)=O)cc1	active
C=C(CN(C)C)C(=O)c1cc(C)ccc1C	active
OC1CCCc2c1cc1ccc3cccc4ccc2c1c34 (stereo not drawn)	active
Cc1ccc(S(=O)(=O)NC(=O)NC2=NC(C)(C)N(c3ccc(Cl)c(Cl)c3)C(N)=N2)cc1	inactive
N#C/C(=C\c1cccc(OCc2ccccc2)c1)c1ccc([N+](=O)[O-])cc1	inactive
CCC[CH2][Ge]([CH2]CCC)([CH2]CCC)[O]C(=O)C(OC)c1ccccc1 (stereo not drawn)	inactive
COC(=O)C1=C(C)NC(C)=C(C(=O)OCCCN2CCC(c3ccccc3)(c3ccccc3)CC2)C1c1cccc([N+](=O)[O-])c1 (stereo not drawn)	active
c1ccc2c(c1)sc1cc3ccncc3cc12	active
OCC1OC(OCC(O)C(O)C(O)C(/C=N/Nc2ccccc2)=N/Nc2ccccc2)C(O)C(O)C1O (stereo not drawn)	inactive
